Protocol notes: qHTS assay for small molecule disruptors of the mitochondrial membrane potential - 1 hr assay (AID 651754); note: nearly all actives have a fitted effect of over 35% in size; note: potency is the fitted concentration of half-maximal effect
Condition info: series mostly up to 92.2 µM
Results filed as inconclusive are left out. The source made the active and inactive calls. Calls come from the whole dose curve.
Measured parameter: Potency

1. Cc1ccc(-c2cc(C(F)(F)F)nn2-c2ccc(S(N)(=O)=O)cc2)cc1; 42.2 µM (active)
2. COc1cc2c(c(OC)c1OC)-c1ccc(OC)c(=O)cc1[C@@H](NC(C)=O)CC2; inactive
3. O=c1c(-c2ccc(O)cc2)coc2cc(O)cc(O)c12; 5.96 µM (active)
4. CC(C)NCC(O)c1ccc(O)c(O)c1 (stereo not given); inactive

*Q* What Potency value was documented for this compound, `NCCS(=O)(=O)O` ?
*A* inactive

----------
Protocol notes: qHTS of pediatric cancer cell lines to identify multiple opportunities for drug repurposing: Primary screen for NB1643 cells (AID 1347099); note: nearly all actives have a fitted effect of over 50% in size
Condition info: NB1643 neuroblastoma viability, CellTiter-Glo luminescence, 48 h; series mostly up to 46 µM
Description: Drug repurposing or repositioning has been offered as a strategy for drug development in oncology programs. This approach has special potential for childhood cancers and other rare or orphan diseases, where the expected return on new drug development has been a disincentive to pharmaceuticals. […] We employed a titration-based paradigm (quantitative high-throughput screening or qHTS), where all compounds were tested at multiple concentrations for their effect on cell viability. […]
Results filed as inconclusive are left out. The source made the active and inactive calls. Calls follow the shape of the dose curve; as a rule, active = well fitted cell-killing curve with a large enough effect; inconclusive = small, poorly fitted or top-dose-only effect; inactive = no such curve, though single readings can be large or run the other way.
Field 'call' accepts active, inactive

*Q* Record lookup: outcome of this test for `COc1ccc2[nH]cc(CCNC(C)=O)c2c1` ?
*A* inactive

*Q* Recorded test outcome, item COc1ccc(CCN(C)CCCC(C#N)(c2ccc(OC)c(OC)c2)C(C)C)cc1OC (configuration not stated)
*A* inactive

*Q* Tell me the assay call for `O=c1c(-c2ccc(O)cc2)coc2cc(O)cc(O)c12` please.
*A* inactive

*Q* Answer briefly: the call reported for `C[C@@H]1CC(=O)NN=C1c1ccc(NN=C(C#N)C#N)cc1` in this assay.
*A* active

*Q* Record lookup: outcome of this test for `CC(=O)OCC(CCn1cnc2cnc(N)nc21)COC(C)=O` ?
*A* inactive

*Q* Lab log entry: COc1ccc(C2CNC(=O)C2)cc1OC1CCCC1 (configuration not stated) — outcome as called in the assay?
*A* inactive

*Q* Returns: the outcome recorded for COc1cc2nc(N(C)CCCNC(=O)C3CCCO3)nc(N)c2cc1OC (configuration not stated) in this assay.
*A* inactive

*Q* Dear all, I need the recorded test outcome for `Cn1cnc2c1c(=O)[nH]c(=O)n2C` , thank you.
*A* inactive

*Q* What is the recorded call for this molecule in the test? `CN(C)C(=N)N=C(N)N`
*A* inactive

*Q* I'd appreciate the recorded outcome for `CCOC(=O)c1ncn2c1CN(C)C(=O)c1cc(F)ccc1-2` from this test.
*A* inactive

*Q* Which outcome was assigned to Cc1ccccc1N1C(=O)c2cc(S(N)(=O)=O)c(Cl)cc2NC1C (configuration not stated) in this test?
*A* inactive

*Q* State the result this test recorded for `Nc1ccn([C@H]2CC[C@@H](CO)O2)c(=O)n1` .
*A* inactive

----------
Test system: CP329
Protocol notes: qHTS profiling for inhibitors of Plasmodium falciparum proliferation (AID 504749); note: nearly all actives have a fitted effect of over 60% in size
Condition info: P. falciparum in erythrocytes, SYBR Green DNA, 72 h; series mostly up to 28.7 µM
Records with an inconclusive call do not appear. Active and inactive are the calls of the source. Calls follow the shape of the dose curve; as a rule, active = well fitted inhibition curve with a large enough effect; inconclusive = small, poorly fitted or top-dose-only effect; inactive = flat fitted curve, though single readings scatter.
Just give me one of these, please: Y = active, N = inactive

*Q* Call for entry `CN(Cc1cnc2nc(N)nc(N)c2n1)c1ccc(C(=O)N[C@@H](CCC(=O)O)C(=O)O)cc1` :
*A* N

*Q* Tell me the assay call for `COc1nc(C)nc(Cl)c1NC1=NCCN1` please.
*A* N

*Q* Test call for this compound, please: `CC12CC3CC(C)(C1)CC(N)(C3)C2`
*A* N

*Q* In this assay, the call recorded for `Cc1cnc(C(=O)NCCc2ccc(S(=O)(=O)NC(=O)NC3CCCCC3)cc2)cn1` was what?
*A* N

*Q* Record lookup: outcome of this test for CCCNCC(O)COc1ccccc1C(=O)CCc1ccccc1 (stereo unspecified) ?
*A* Y

*Q* Could you please tell me the result logged for `NC(=O)NO` in this assay?
*A* N

*Q* Hi, do you know how `CN(C)c1nc(N(C)C)nc(N(C)C)n1` came out in this test?
*A* N

*Q* So what was the verdict on COc1ccccc1N1CCN(CC(O)COc2cccc3ccccc23)CC1 (stereo unspecified) in this test?
*A* N

*Q* Assay outcome for `Clc1ccc2nsnc2c1NC1=NCCN1` : what was it?
*A* N

*Q* What was the test verdict on `CCOC(=O)c1ncn2c1CN(C)C(=O)c1cc(F)ccc1-2` ?
*A* N

*Q* What did this assay record as the result for `NCCc1cnc[nH]1` ?
*A* N

*Q* Query: recorded result category for CC(C)NCC(O)COc1ccc(CCOCC2CC2)cc1 (stereo unspecified) in this test
*A* N

*Q* Query: recorded result category for `Cn1c(=O)c2[nH]cnc2n(C)c1=O` in this test
*A* N

*Q* Per the assay record, what outcome was assigned to `COc1ccc2[nH]cc(CCNC(C)=O)c2c1` ?
*A* N

*Q* # fetch the recorded call for `CCC1(c2ccccc2)C(=O)NCNC1=O` here
*A* N

*Q* What was the test verdict on `CC(=O)OCC(CCn1cnc2cnc(N)nc21)COC(C)=O` ?
*A* N

*Q* Assay outcome for `Cc1ccc(C(=O)Nc2ccc(S(=O)(=O)O)c3cc(S(=O)(=O)O)cc(S(=O)(=O)O)c23)cc1NC(=O)c1cccc(NC(=O)Nc2cccc(C(=O)Nc3cc(C(=O)Nc4ccc(S(=O)(=O)O)c5cc(S(=O)(=O)O)cc(S(=O)(=O)O)c45)ccc3C)c2)c1` : what was it?
*A* N

*Q* Per the assay record, what outcome was assigned to `Cc1cc(C(C)(C)C)c(O)c(C)c1CC1=NCCN1` ?
*A* N

*Q* Outcome? `CN(CCOc1ccc(NS(C)(=O)=O)cc1)CCc1ccc(NS(C)(=O)=O)cc1`
*A* N

*Q* What is the recorded call for this compound in the test? `NC(=O)OCC(COC(N)=O)c1ccccc1`
*A* N

*Q* Write down the call the test reported for this compound. Item: `CNCCCC12CCC(c3ccccc31)c1ccccc12`
*A* N

*Q* State the result this test recorded for `CN1C(C(=O)Nc2ccccn2)=C(O)c2ccccc2S1(=O)=O` .
*A* N

*Q* Hi, do you know how `COc1cc2c(c(OC)c1OC)-c1ccc(OC)c(=O)cc1[C@@H](NC(C)=O)CC2` came out in this test?
*A* N

*Q* Entry `CC(C)C(=O)Nc1ccc([N+](=O)[O-])c(C(F)(F)F)c1` : call = ?
*A* N

*Q* Returns: the outcome recorded for CN1CCN2c3ccccc3Cc3ccccc3C2C1 (stereo unspecified) in this assay.
*A* N

*Q* Record request — test call for `Cn1cnc2c1c(=O)[nH]c(=O)n2C`
*A* N

----------
Protocol notes: qHTS Assay for Lipid Storage Modulators (AID 1519); note: % is set by controls: 0 for no effect and ±100 for the full control effect
Condition info: Drosophila S3 cells, BODIPY lipid droplet/cell ratio, laser cytometry; at 25.7 µM (top of the series); cells loaded with oleic acid
Records with an inconclusive call do not appear.
For each record, write down the corresponding activity change, negative = inhibition.
Unit % implied. Number only.

*Q* Param item = `CN(C)c1nc(N(C)C)nc(N(C)C)n1` ; retrieve measured activity change, negative = inhibition.
*A* -1.28

*Q* So what does the record say about activity change, negative = inhibition for `COc1ccc2c(c1)c(CC(=O)O)c(C)n2C(=O)c1ccc(Cl)cc1` ?
*A* 0.248

*Q* What measured activity change, negative = inhibition goes with `CN1C(C(=O)Nc2ccccn2)=C(O)c2ccccc2S1(=O)=O` ?
*A* -1.27

*Q* Please look up its activity change, negative = inhibition: `COc1ccc2[nH]cc(CCNC(C)=O)c2c1`
*A* 1.02

*Q* I am curious: what activity change, negative = inhibition value has been reported for `CNCCCC12CCC(c3ccccc31)c1ccccc12` ?
*A* -2.57

----------
Test system: CP269
Protocol notes: qHTS profiling for inhibitors of Plasmodium falciparum proliferation (AID 504749); note: nearly all actives have a fitted effect of over 60% in size
Condition info: P. falciparum in erythrocytes, SYBR Green DNA, 72 h; series mostly up to 28.7 µM
Results filed as inconclusive are left out. Active and inactive are the calls of the source. Calls come from the whole dose curve; as a rule, active = well fitted inhibition curve with a large enough effect; inconclusive = small, poorly fitted or top-dose-only effect; inactive = flat fitted curve, though single readings scatter.
Hi! Could you answer with just one of these? Y (active), N (inactive)

*Q* Test call, this molecule: `N[C@@H](Cc1c[nH]c2ccc(O)cc12)C(=O)O`
*A* N

*Q* Short answer needed: outcome of this test for CC(C)NCC(O)c1ccc(O)c(O)c1 (stereo not given) ?
*A* N

*Q* Given `NCCCCCC(=O)O` , state the outcome it received in this test.
*A* N

*Q* Write down the call the test reported for this molecule. Item: `Cc1cn([C@H]2C[C@H](N=[N+]=[N-])[C@@H](CO)O2)c(=O)[nH]c1=O`
*A* N

*Q* What did this assay record as the result for `O=C1N(c2ccccc2)c2ccccc2C1(Cc1ccncc1)Cc1ccncc1` ?
*A* N

*Q* Please state the recorded outcome for this molecule: `CCOC(=O)c1ncn2c1CN(C)C(=O)c1cc(F)ccc1-2`
*A* N

*Q* What outcome does the record of this test show for `OCCN1CCN(CCCN2c3ccccc3Sc3ccc(C(F)(F)F)cc32)CC1` ?
*A* Y

*Q* Record lookup: outcome of this test for `CS(=O)(=O)CCNCc1ccc(-c2ccc3ncnc(Nc4ccc(OCc5cccc(F)c5)c(Cl)c4)c3c2)o1` ?
*A* N

*Q* Could you kindly confirm the outcome this assay logged for `CN1C(C(=O)Nc2ccccn2)=C(O)c2ccccc2S1(=O)=O` ?
*A* N

*Q* Assay result, entry `CC[N+](CC)(CC)CCOc1cccc(OCC[N+](CC)(CC)CC)c1OCC[N+](CC)(CC)CC` — outcome?
*A* N

*Q* Please share the test call associated with `CCC1(c2ccccc2)C(=O)NCNC1=O` .
*A* N

*Q* Could you check what this test reported for COc1ccccc1N1CCN(CC(O)COc2cccc3ccccc23)CC1 (stereo not given) ?
*A* N

*Q* Could you check what this test reported for `CN(C)CCOC(c1ccccc1)c1ccccc1` ?
*A* N

*Q* Kindly provide the recorded test outcome for the following molecule: CN1CCN2c3ccccc3Cc3ccccc3C2C1 (stereo not given)
*A* N

*Q* In this assay, the call recorded for CC(COc1ccccc1)N(CCCl)Cc1ccccc1 (stereo not given) was what?
*A* N

*Q* What did the test return for Clc1ccc(C(c2ccccc2Cl)C(Cl)Cl)cc1 (stereo not given) ?
*A* N

*Q* Write down the call the test reported for this molecule. Item: `O=C(c1ccc(F)cc1)C1CCN(CCn2c(=O)[nH]c3ccccc3c2=O)CC1`
*A* N

*Q* Lab log entry: `COC(=O)Nc1nc2ccc(C(=O)c3cccs3)cc2[nH]1` — outcome as called in the assay?
*A* N

*Q* So what was the verdict on `NC12CC3CC(CC(C3)C1)C2` in this test?
*A* N

*Q* Which outcome was entered for the molecule `C[C@](N)(Cc1ccc(O)c(O)c1)C(=O)O` in this test?
*A* N

*Q* Which result was noted for this molecule in the test: `O=C(Nc1ccc([N+](=O)[O-])cc1Cl)c1cc(Cl)ccc1O`
*A* Y

*Q* Hello, I am checking results. What call was entered for `NC(=O)NO` ?
*A* N

*Q* Lab log entry: `COc1nc(C)nc(Cl)c1NC1=NCCN1` — outcome as called in the assay?
*A* N

*Q* Each molecule tested received a call. Report the one for `NC(=O)OCC(COC(N)=O)c1ccccc1` .
*A* N

*Q* Each molecule tested received a call. Report the one for `Clc1ccc2nsnc2c1NC1=NCCN1` .
*A* N
